src = ChEMBL document CHEMBL4808200

Experiment: Solubility of the compound in pH 6.5 FaSSIF at […] measured after 16 hrs by HPLC analysis
Assay type: physicochemical
Experimental Readout: solubility at 16 h (µg/mL)

Example results:
>  <Molecule>
CNC(=O)c1cc(C(=O)N[C@H]2[C@@H]3C[C@H](O)C[C@@H]32)cc(Cc2ccccc2)n1

>  <Value Reported>
43

$$$$
>  <Molecule>
CNC(=O)c1cc(C(=O)NC2CC2)cn(Cc2cccc3[nH]ccc23)c1=O

>  <Value Reported>
20

$$$$
>  <Molecule>
CNC(=O)c1cc(C(=O)N[C@H]2[C@@H]3COC[C@@H]32)cc(Cc2ccccc2)n1

>  <Value Reported>
112

$$$$
>  <Molecule>
CNC(=O)c1cc(C(=O)N[C@H]2[C@@H]3COC[C@@H]32)cc(C(CC#N)c2ccccc2)n1 (stereo not given in full)

>  <Value Reported>
930

$$$$

I. CCNC(=O)c1cc(Cc2ccccc2)nc(C(=O)NC)c1
II. CNC(=O)c1cc(C(=O)NC2CC2)cc([C@@H](C)c2ccccc2)n1
Compare the recorded solubility at 16 h of I and II ; state which is larger. # reply format: chosen label
I

1. CNC(=O)c1cc(C(=O)NC2CCOCC2)cc(Cc2ccccc2)n1
2. CNC(=O)c1cc(C(=O)N[C@H]2[C@@H]3COC[C@@H]32)cc([C@@H](C)c2ccccc2)n1
Compare the recorded solubility at 16 h of 1 and 2 ; state which is larger. # reply format: chosen label
1

1. CNC(=O)c1cc(C(=O)NC2CC2)cn([C@@H](C)c2ccccc2)c1=O
2. CNC(=O)c1cc(C(=O)N[C@H]2C[C@H](O)C2)cc(Cc2ccccc2)n1
3. CNC(=O)c1cc(C(=O)NC2CC2)cc(Cc2ccccc2)n1
List from greatest to least solubility at 16 h. Answer format: list of labels, ordered as asked.
1, 2, 3
(1: 598 µg/mL, 2: 194 µg/mL, 3: 89 µg/mL)

a. CNC(=O)c1cc(C(=O)N[C@H]2CC[C@H](O)CC2)cc(Cc2ccccc2)n1
b. CNC(=O)c1cc(C(=O)N[C@H]2[C@@H]3C[C@@H](O)C[C@@H]32)cc(Cc2ccccc2)n1
Compare the recorded solubility at 16 h of a and b ; state which is larger. # reply format: chosen label
a
